Numbers sourced from patent US20090142347A1.

Each entry below carries its recorded pKi.
study-system: hTNALP N120 (Homo sapiens, UniProt P05186, S137N)
method-description: biochemical
pKi here is simply -log10 of the concentration when that concentration is written in mol/L.

N=C(N)NCCCC[C@H](N)C(=O)O; 2.89

For the next question, use this molecule.
Any idea what its pKi is? The molecule is `N[C@@H](Cc1ccccc1)C(=O)O`
1.64

----------
study-system: hTNALP A166 (Homo sapiens, UniProt P05186, D183A)
method-description: biochemical
Each entry below carries its recorded Ki.
Numeric answer only, unit mM assumed.

N=C(N)NCCCC[C@H](N)C(=O)O; 1.6

Any idea what its Ki is? The compound is `N[C@@H](Cc1ccccc1)C(=O)O`
24

----------
study-system: hPLALP (R428, H429) (Homo sapiens, UniProt P05187, D450R/E451H)
Sequence (P05187 23-506 D450R/E451H limits assumed): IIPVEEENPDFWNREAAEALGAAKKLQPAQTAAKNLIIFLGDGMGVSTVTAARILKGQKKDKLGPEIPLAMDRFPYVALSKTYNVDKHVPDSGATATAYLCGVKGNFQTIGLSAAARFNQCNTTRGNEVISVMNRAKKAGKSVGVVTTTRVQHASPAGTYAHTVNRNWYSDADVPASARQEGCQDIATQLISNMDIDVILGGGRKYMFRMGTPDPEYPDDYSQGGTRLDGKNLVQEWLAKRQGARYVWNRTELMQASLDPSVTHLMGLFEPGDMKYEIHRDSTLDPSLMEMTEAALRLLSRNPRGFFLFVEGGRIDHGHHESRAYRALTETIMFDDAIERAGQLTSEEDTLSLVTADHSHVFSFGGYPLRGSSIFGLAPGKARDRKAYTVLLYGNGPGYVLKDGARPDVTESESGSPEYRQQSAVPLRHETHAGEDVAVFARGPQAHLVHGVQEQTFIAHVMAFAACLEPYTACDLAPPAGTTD
method-description: Ki of uncompetitive inhibitors (pNPP substrate)
test-conditions: hPLALP mutant (R428, H429); read-out: Ki for various inhibitors
Method: In brief, samples of the enzymes were added to microtiter plates coated with M2 anti-FLAG antibody, and saturating activities with the substrate pNPP were measured in 1 M DEA/HCl buffer, pH 9.8, containing 1 mM MgCl2 and 20 .micro.M ZnCl2.
readout-kind: Ki (µM)
Numeric answer only, unit µM assumed.

# example entries with known answers
N[C@@H](Cc1ccccc1)C(=O)O [L-Phe, L-phenylalanine]; 350
N=C(N)NCCCC[C@H](N)C(=O)O [L-hArg, L-homoarginine]; 14000

For the next question, use this molecule.
Any idea what its Ki is? The molecule is c1ccc([C@H]2CN3CCSC3=N2)cc1 [Levamisole]
34

----------
study-system: hTNALP B434 (Homo sapiens, UniProt P05186, H451E)
method-description: biochemical
readout-kind: pKi
pKi here is simply -log10 of the concentration when that concentration is written in mol/L.

N[C@@H](Cc1ccccc1)C(=O)O; 1.37

Any idea what its pKi is? The compound is `N=C(N)NCCCC[C@H](N)C(=O)O`
2.17

----------
study-system: hTNALP (D433, E434) (Homo sapiens, UniProt P05186, H451E/R450D)
method-description: biochemical
readout-kind: Ki (mM)
Numeric answer only, unit mM assumed.

Any idea what its Ki is? The molecule is N=C(N)NCCCC[C@H](N)C(=O)O [L-hArg, L-homoarginine]
13

----------
study-system: hTNALP Q109 (Homo sapiens, UniProt P05186, G126Q)
method-description: biochemical
Each entry below carries its recorded Ki.
Numeric answer only, unit µM assumed.

N[C@@H](Cc1ccccc1)C(=O)O [L-Phe, L-phenylalanine]; 4000

For the next question, use this compound.
Any idea what its Ki is? The compound is N=C(N)NCCCC[C@H](N)C(=O)O [L-hArg, L-homoarginine]
1600

----------
study-system: chTNALP (Gallus gallus, UniProt Q92058)
Sequence (Q92058 17-498): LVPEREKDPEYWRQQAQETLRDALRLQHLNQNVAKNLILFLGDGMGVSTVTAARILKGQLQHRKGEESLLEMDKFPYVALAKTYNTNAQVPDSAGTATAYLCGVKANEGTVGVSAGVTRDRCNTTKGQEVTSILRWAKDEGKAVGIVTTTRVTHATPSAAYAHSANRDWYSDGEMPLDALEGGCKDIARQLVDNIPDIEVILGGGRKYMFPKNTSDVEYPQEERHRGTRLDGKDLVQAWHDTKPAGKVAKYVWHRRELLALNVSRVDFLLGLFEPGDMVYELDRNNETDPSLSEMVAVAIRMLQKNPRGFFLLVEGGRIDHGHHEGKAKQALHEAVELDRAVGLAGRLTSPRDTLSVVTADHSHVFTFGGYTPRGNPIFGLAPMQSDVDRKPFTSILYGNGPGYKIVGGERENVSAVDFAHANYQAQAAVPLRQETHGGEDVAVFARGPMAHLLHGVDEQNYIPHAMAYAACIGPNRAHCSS
method-description: Ki of uncompetitive inhibitors (pNPP substrate)
Type: biochemical, chicken
test-conditions: Ki for various inhibitors, (1)*, (1)*: 1 mM pNPP
readout-kind: pKi
pKi here is simply -log10 of the concentration when that concentration is written in mol/L.

Any idea what its pKi is? The compound is `Cn1c(=O)c2[nH]cnc2n(C)c1=O`
3.41

----------
Hi! I'm sharing some Ki results obtained with hTNALP (Homo sapiens).
Numeric answer only, unit mM assumed.

N=C(N)NCCCC[C@H](N)C(=O)O; 1.4

Tell me reported Ki for `N[C@@H](Cc1ccccc1)C(=O)O` , tested with hTNALP (Homo sapiens).
19

----------
study-system: hTNALP (F104, Q109) (Homo sapiens, UniProt P05186, E125F/G126Q)
Sequence (P05186 1-524 E125F/G126Q): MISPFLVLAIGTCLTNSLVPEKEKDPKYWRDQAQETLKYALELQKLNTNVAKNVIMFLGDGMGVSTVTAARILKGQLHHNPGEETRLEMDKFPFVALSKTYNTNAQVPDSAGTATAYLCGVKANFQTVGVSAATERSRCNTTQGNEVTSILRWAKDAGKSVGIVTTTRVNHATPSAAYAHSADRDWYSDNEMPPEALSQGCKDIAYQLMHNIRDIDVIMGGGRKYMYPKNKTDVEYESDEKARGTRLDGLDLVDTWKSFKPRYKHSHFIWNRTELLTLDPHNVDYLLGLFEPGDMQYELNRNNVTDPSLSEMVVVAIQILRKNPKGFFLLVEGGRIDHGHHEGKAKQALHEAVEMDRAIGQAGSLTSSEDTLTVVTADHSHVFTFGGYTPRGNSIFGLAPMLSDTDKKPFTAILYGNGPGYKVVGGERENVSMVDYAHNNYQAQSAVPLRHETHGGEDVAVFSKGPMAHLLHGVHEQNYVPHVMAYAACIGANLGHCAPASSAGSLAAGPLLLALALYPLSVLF
method-description: biochemical
readout-kind: Ki
Could you write the number and then its unit?

N[C@@H](Cc1ccccc1)C(=O)O; 2.1 mM

For the next question, use this molecule.
Tell me reported Ki for `N=C(N)NCCCC[C@H](N)C(=O)O` , tested with hTNALP (F104, Q109) (Homo sapiens, UniProt P05186, E125F/G126Q).
15 mM

----------
Each entry below carries its recorded pKi.
study-system: hTNALP A433 (Homo sapiens, UniProt P05186, R450A)
method-description: biochemical
pKi here is simply -log10 of the concentration when that concentration is written in mol/L.

N[C@@H](Cc1ccccc1)C(=O)O; 1.51

For the next question, use this compound.
Any idea what its pKi is? The compound is `N=C(N)NCCCC[C@H](N)C(=O)O`
2.80

----------
study-system: hTNALP A168 (Homo sapiens, UniProt P05186, D185A)
method-description: biochemical
Each entry below carries its recorded Ki.
Numeric answer only, unit mM assumed.

N=C(N)NCCCC[C@H](N)C(=O)O; 1.5

For the next question, use this molecule.
Any idea what its Ki is? The molecule is `N[C@@H](Cc1ccccc1)C(=O)O`
30

----------
Each entry below carries its recorded pKi.
study-system: hPLALP H429 (Homo sapiens, UniProt P05187, E451H)
Sequence (P05187 23-506 E451H limits assumed): as the sequence (P05187 23-506 D450R/E451H limits assumed) above, with R428D counted along it
method-description: Ki of uncompetitive inhibitors (pNPP substrate)
test-conditions: hPLALP mutant H429; read-out: Ki for various inhibitors
Description: In brief, samples of the enzymes were added to microtiter plates coated with M2 anti-FLAG antibody, and saturating activities with the substrate pNPP were measured in 1 M DEA/HCl buffer, pH 9.8, containing 1 mM MgCl2 and 20 .micro.M ZnCl2.
pKi here is simply -log10 of the concentration when that concentration is written in mol/L.

# example entries with known answers
N=C(N)NCCCC[C@H](N)C(=O)O; 1.97
c1ccc([C@H]2CN3CCSC3=N2)cc1; 4.30

Any idea what its pKi is? The molecule is `N[C@@H](Cc1ccccc1)C(=O)O`
3.51

----------
study-system: hPLALP (E107, G429) (Homo sapiens, UniProt P05187, E451G/F129E)
Sequence (P05187 23-506 F129E/E451G limits assumed): as the sequence (P05187 23-506 D450R/E451H limits assumed) above, with F107E, R428D, H429G counted along it
method-description: Ki of uncompetitive inhibitors (pNPP substrate)
test-conditions: hPLALP mutant (E107, G429); read-out: Ki for various inhibitors
Procedure: In brief, samples of the enzymes were added to microtiter plates coated with M2 anti-FLAG antibody, and saturating activities with the substrate pNPP were measured in 1 M DEA/HCl buffer, pH 9.8, containing 1 mM MgCl2 and 20 .micro.M ZnCl2.
readout-kind: Ki (µM)
Numeric answer only, unit µM assumed.

# example entries with known answers
N=C(N)NCCCC[C@H](N)C(=O)O [L-hArg, L-homoarginine]; 1500
N[C@@H](Cc1ccccc1)C(=O)O [L-Phe, L-phenylalanine]; 1000

For the next question, use this compound.
Any idea what its Ki is? The compound is c1ccc([C@H]2CN3CCSC3=N2)cc1 [Levamisole]
535

----------
study-system: hTNALP A109 (Homo sapiens, UniProt P05186, G126A)
method-description: biochemical
Each entry below carries its recorded pKi.
pKi here is simply -log10 of the concentration when that concentration is written in mol/L.

N[C@@H](Cc1ccccc1)C(=O)O; 1.70

For the next question, use this molecule.
Any idea what its pKi is? The molecule is `N=C(N)NCCCC[C@H](N)C(=O)O`
2.89

----------
Each entry below carries its recorded Ki.
study-system: chTNALP (Gallus gallus)
method-description: Ki of uncompetitive inhibitors (pNPP substrate)
Type: biochemical, chicken
test-conditions: read-out: Ki for various inhibitors
Could you write the number and then its unit?

# example entries with known answers
N=C(N)NCCCC[C@H](N)C(=O)O; 1900 µM
c1ccc([C@H]2CN3CCSC3=N2)cc1; 136 µM

Any idea what its Ki is? The molecule is `N[C@@H](Cc1ccccc1)C(=O)O`
11000 µM

----------
study-system: hPLALP (E107, G108) (Homo sapiens, UniProt P05187, F129E/Q130G)
Construct: made in house; host or cells: COS-7 (given only for the TNAP-Flag constructs)
Sequence (P05187 23-506 F129E/Q130G limits assumed): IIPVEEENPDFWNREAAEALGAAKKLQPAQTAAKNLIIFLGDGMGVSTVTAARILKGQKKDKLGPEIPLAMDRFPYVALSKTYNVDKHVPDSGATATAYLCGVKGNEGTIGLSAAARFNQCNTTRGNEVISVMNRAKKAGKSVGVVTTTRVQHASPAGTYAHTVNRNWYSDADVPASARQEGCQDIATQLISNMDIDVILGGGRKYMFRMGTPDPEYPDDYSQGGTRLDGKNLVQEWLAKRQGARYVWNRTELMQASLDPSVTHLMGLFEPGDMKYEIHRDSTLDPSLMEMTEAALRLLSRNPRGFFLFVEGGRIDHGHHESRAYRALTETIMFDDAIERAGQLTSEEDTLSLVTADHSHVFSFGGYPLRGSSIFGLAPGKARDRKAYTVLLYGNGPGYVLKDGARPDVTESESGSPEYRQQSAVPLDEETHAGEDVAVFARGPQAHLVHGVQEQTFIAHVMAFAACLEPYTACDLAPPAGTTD
method-description: Ki of uncompetitive inhibitors (pNPP substrate)
Type: biochemical
test-conditions: hPLALP mutant (E107, G108); read-out: Ki for various inhibitors
Each entry below carries its recorded Ki.
Could you write the number and then its unit?

N[C@@H](Cc1ccccc1)C(=O)O; 23 mM
N=C(N)NCCCC[C@H](N)C(=O)O; 12 mM

For the next question, use this compound.
Any idea what its Ki is? The compound is `c1ccc([C@H]2CN3CCSC3=N2)cc1`
1.15 mM
